Assignment: determine reported relative affinity of tieing (ARL), Mineralocorticoid for the given molecules.
# TARGET OR TEST SYSTEM: Mineralcorticoidal receptor of kidneys of the rat (Rattus norvegicus, UniProt P22199)
# Construct: from tissue; host or cells: rat kidney, 105,000 g supernatant (adrenalectomized male Sprague-Dawley rats)
# Sequence (P22199 1-981): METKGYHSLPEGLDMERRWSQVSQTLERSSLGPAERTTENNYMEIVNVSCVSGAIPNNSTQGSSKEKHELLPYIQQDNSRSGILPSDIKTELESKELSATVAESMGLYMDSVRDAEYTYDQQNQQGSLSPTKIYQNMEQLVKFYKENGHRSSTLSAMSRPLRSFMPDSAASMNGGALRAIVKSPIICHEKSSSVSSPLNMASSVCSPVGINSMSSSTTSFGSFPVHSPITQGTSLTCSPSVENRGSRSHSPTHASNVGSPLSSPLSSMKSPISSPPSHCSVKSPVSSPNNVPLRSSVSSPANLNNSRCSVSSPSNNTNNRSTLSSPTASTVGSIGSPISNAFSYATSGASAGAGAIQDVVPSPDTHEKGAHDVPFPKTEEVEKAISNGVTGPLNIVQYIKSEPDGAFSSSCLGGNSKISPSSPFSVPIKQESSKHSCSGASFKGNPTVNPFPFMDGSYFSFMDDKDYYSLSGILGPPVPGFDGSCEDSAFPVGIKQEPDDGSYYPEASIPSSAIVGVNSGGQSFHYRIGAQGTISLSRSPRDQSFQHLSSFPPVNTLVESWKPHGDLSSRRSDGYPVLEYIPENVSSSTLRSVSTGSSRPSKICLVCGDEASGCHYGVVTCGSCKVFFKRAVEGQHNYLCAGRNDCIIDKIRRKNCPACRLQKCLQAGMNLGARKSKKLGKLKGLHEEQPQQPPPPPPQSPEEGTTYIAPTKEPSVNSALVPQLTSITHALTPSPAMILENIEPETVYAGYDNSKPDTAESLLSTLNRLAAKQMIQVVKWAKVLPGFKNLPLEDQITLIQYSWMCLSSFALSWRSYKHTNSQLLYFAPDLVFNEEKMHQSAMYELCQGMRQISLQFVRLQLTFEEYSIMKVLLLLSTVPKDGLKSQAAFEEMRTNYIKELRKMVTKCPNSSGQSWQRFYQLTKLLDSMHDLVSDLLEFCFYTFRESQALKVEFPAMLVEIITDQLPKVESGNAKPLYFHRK
# ASSAY OVERVIEW: Mineralcorticoidal receptor binding (displacement of tritiated aldosterone)
# SETUP CONDITIONS: second table; incubation 24 H at 0° C.

Prompt: Give the measured relative affinity of tieing (ARL), Mineralocorticoid of C[C@]12C[C@H](c3ccc([N+](C)(C)[O-])cc3)[C@]34O[C@]35CCC(=O)C=C5CC[C@H]4[C@@H]1CC[C@@]2(O)C#CCl .
Completion: 0

Prompt: Which relative affinity of tieing (ARL), Mineralocorticoid is reported for this molecule? C#C[C@@]1(O)CC[C@H]2[C@@H]3CCC4=CC(=O)CCC4=C3[C@@H](c3ccc(N(C)C)cc3)C[C@@]21C
Completion: 0,8

Prompt: // returns reported relative affinity of tieing (ARL), Mineralocorticoid for input CN(C)c1ccc([C@H]2C[C@@]3(C)[C@@H](CC[C@@]3(O)C#CCl)[C@@H]3CCC4=CC(=O)CCC4=C32)cc1
Completion: 0

Prompt: What value of relative affinity of tieing (ARL), Mineralocorticoid has been recorded for this entry: C=C(C)C#C[C@]1(O)CC[C@H]2[C@@H]3CCC4=CC(=O)CCC4=C3[C@@H](c3ccc(N(C)C)cc3)C[C@@]21C
Completion: 0

Prompt: Which relative affinity of tieing (ARL), Mineralocorticoid value is on record for CN(C)c1ccc([C@H]2C[C@@]3(C)[C@@H](CC[C@@]3(O)C#C[Si](C)(C)C)[C@@H]3CCC4=CC(=O)CCC4=C32)cc1 ?
Completion: 0

Prompt: # query: relative affinity of tieing (ARL), Mineralocorticoid of entry C[C@]12C[C@H](c3ccc([N+](C)(C)[O-])cc3)C3=C4CCC(=O)C=C4CC[C@H]3[C@@H]1CC[C@@]2(O)C#CCl
Completion: 0

Prompt: Returns the measured relative affinity of tieing (ARL), Mineralocorticoid for the input molecule. Input: C=CC[C@]1(O)CC[C@H]2[C@@H]3CCC4=CC(=O)CCC4=C3[C@@H](c3ccc(N(C)C)cc3)C[C@@]21C
Completion: 0,3

Prompt: Quick one: relative affinity of tieing (ARL), Mineralocorticoid of C#C[C@]1(O)CC[C@H]2[C@@H]3CCC4=CC(=O)CCC4=C3[C@@H](c3ccc(N(C)C)cc3)C[C@@]21C ?
Completion: 0

The measurements presented in this section are drawn from patent US5043332A.
